assay.comment: Partition coefficient (log P)
Assay type: physicochemical

molecule: C/C=C/C[C@@H](C)[C@@H](O)[C@H]1C(=O)N[C@@H](CC)C(=O)N(C)[C@H](SC)C(=O)N(C)[C@@H](CC(C)C)C(=O)N[C@@H](C(C)C)C(=O)N(C)[C@@H](CC(C)C)C(=O)N[C@@H](C)C(=O)N[C@H](C)C(=O)N(C)[C@@H](CC(C)C)C(=O)N(C)[C@@H](CC(C)C)C(=O)N(C)[C@@H](C(C)C)C(=O)N1C [OND-1, [D-2-methylthio-Sar^3]cyclosporine A]
logP: 3.84
